Item-by-item account of IC50
- measured.target: PI3Kalpha (Homo sapiens)
- Sequence (P42336 whole entry): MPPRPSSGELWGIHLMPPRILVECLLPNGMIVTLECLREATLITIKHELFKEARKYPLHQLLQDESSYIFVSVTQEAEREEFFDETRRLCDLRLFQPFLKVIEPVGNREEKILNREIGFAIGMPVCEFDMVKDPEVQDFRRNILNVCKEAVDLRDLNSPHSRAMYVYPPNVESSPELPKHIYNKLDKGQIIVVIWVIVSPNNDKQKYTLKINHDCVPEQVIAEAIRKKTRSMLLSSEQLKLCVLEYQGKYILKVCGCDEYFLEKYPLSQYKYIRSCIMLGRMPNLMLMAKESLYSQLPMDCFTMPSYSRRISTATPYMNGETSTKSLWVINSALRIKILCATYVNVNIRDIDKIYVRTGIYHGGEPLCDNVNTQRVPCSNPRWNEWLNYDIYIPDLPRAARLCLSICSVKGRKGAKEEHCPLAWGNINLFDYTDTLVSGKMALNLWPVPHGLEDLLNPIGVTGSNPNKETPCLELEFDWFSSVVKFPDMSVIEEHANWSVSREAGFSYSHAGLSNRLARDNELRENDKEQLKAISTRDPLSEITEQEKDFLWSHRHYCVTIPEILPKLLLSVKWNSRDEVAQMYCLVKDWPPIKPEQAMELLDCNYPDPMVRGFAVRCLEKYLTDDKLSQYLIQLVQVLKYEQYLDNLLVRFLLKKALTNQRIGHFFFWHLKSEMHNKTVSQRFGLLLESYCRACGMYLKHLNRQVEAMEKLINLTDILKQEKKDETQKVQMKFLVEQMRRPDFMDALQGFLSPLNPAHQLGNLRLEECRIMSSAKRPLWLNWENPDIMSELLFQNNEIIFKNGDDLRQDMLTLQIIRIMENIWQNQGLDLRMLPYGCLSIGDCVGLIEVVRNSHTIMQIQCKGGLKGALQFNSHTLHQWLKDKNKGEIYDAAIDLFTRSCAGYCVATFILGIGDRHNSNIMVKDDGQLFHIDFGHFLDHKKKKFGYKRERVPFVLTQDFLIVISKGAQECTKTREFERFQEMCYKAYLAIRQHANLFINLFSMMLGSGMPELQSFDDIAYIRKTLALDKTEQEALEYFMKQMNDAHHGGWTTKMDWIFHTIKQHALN
- Sequence (P27986 whole entry partner): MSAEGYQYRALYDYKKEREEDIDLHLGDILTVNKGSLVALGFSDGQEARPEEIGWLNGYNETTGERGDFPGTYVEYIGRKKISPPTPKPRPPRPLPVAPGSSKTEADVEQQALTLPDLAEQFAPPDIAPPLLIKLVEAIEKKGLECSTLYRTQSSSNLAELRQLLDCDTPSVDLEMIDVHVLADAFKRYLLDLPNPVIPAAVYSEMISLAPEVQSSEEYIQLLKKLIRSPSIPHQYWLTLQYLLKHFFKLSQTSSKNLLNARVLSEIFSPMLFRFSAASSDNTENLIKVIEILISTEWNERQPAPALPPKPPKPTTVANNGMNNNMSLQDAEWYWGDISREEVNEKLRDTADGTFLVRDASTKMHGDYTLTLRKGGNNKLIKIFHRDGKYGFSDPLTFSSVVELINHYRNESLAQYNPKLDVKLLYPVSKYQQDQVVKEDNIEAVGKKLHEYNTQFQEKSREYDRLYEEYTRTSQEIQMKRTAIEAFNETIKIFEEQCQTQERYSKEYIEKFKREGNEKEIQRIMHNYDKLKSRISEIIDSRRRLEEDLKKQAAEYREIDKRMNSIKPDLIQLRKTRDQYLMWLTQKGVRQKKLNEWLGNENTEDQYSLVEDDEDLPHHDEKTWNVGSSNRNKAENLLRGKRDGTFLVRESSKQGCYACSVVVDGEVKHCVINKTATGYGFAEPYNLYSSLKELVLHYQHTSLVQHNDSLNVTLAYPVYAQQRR
- protocol.details: Biochemical PI3Kalpha assay (neomycin SPA, lipid phosphorylation)
- test.settings: human recombinant GST-PI3K

smiles.text | IC50
Cn1cc(-c2cc(-c3cnc(N)c(C(F)(F)F)c3)ccn2)n(-c2ccc(C(C)(C)C#N)cc2)c1=O | 0.1 to 100 nM
COc1ccc(-c2ccnc(-c3c[nH]c(=O)n3-c3ccc(C(C)(C)C#N)cc3)c2)cn1 | 100 to 10000 nM
Cn1cc(-c2cc(-c3cnc4[nH]cc(C(F)(F)F)c4c3)ccn2)n(-c2ccc(C(C)(C)C#N)cc2)c1=O | 100 to 10000 nM
Cn1cc(-c2cc(-c3ccnc4[nH]ccc34)ccn2)n(-c2ccc(C(C)(C)C#N)cc2)c1=O | 100 to 10000 nM
Cn1cc(-c2cc(-c3cnc4[nH]ccc4c3)ccn2)n(-c2ccc(C(C)(C)C#N)cc2)c1=O | 0.1 to 100 nM
CCn1cc(-c2cc(-c3cnc4[nH]ccc4c3)ccn2)n(-c2ccc(C(C)(C)C#N)cc2)c1=O | 100 to 10000 nM
Cn1cc(-c2cc(-c3ccsc3)ccn2)n(-c2ccc(C(C)(C)C#N)cc2)c1=O | 100 to 10000 nM
Cn1cc(-c2cc(-c3ccc(NS(C)(=O)=O)cc3)ccn2)n(-c2ccc(N3CCNCC3)c(C(F)(F)F)c2)c1=O | > 10000 nM
Cn1cc(-c2cc(-c3cnc4[nH]ccc4c3)ccn2)n(-c2ccc(C(C)(C)C(=O)O)cc2)c1=O | 100 to 10000 nM
COc1ccc(Cn2c(-c3cc(-c4cnc(NC(C)=O)c(C(F)(F)F)c4)ccn3)cn(C)c2=O)cc1 | > 10000 nM
Cn1cc(-c2cc(-c3cnc4ccccc4c3)ccn2)n(-c2ccc(C(C)(C)CN)cc2)c1=O | 100 to 10000 nM
CCc1cccc(-n2c(-c3cc(-c4cnc5[nH]ccc5c4)ccn3)cn(C)c2=O)c1 | > 10000 nM
Cn1cc(-c2cc(-c3cnc4[nH]ccc4c3)ccn2)n(-c2ccc(C(C)(C)C(N)=O)cc2)c1=O | 0.1 to 100 nM
COc1ccc(Cn2c(-c3cc(-c4cnc5[nH]ncc5c4)ccn3)cn(C)c2=O)cc1 | 100 to 10000 nM
Cc1cc2cc(-c3ccnc(-c4cn(C)c(=O)n4-c4ccc(C(C)(C)C#N)cc4)c3)cnc2[nH]1 | 100 to 10000 nM
